Tested on: DMS114
experiment.notes: resazurin-based potency assay, normoxia vs anoxia
Type: cell-based, human
test.conditions: Homo sapiens, DMS-114, normoxia (21% O2), 4 h exposure then 96 h, read-out: IC50 Average for Cpd.11Ms NRX (SD)
metric: IC50 (µM)
Numbers only, in µM.

Entry CCN1CCN(C(=O)c2cc(N(CCBr)CCOS(C)(=O)=O)c(S(C)(=O)=O)cc2[N+](=O)[O-])CC1.CS(=O)(=O)O [Cpd.11 Ms, methanesulfonate] , IC50 reported as 564

* * *

Tested on: NCI-H1975
experiment.notes: resazurin-based potency assay, normoxia vs anoxia
Type: cell-based, human
test.conditions: Homo sapiens, anoxia (<0.01% O2), 4 h exposure then 96 h, read-out: IC50 Average for Cpd.11Ms ANX (SD)
metric: IC50 (µM)
Give bare numbers, in µM.

Item CCN1CCN(C(=O)c2cc(N(CCBr)CCOS(C)(=O)=O)c(S(C)(=O)=O)cc2[N+](=O)[O-])CC1.CS(=O)(=O)O [Cpd.11 Ms, methanesulfonate] was tested on NCI-H1975; the reported IC50 is 28.7

* * *

System: PANC-1
experiment.notes: resazurin-based potency assay, normoxia vs anoxia
Assay type: cell-based, human
test.conditions: Homo sapiens, anoxia (<0.01% O2), 4 h exposure then 96 h, read-out: IC50 Average for Cpd.11Ms ANX (SD)
metric: pIC50
One number for each entry, as −log10 of the molar value.

Entry CCN1CCN(C(=O)c2cc(N(CCBr)CCOS(C)(=O)=O)c(S(C)(=O)=O)cc2[N+](=O)[O-])CC1.CS(=O)(=O)O [Cpd.11 Ms, methanesulfonate] , pIC50 reported as 4.36

* * *

experiment.notes: water solubility for preparing injection dilution
metric: solubility

Entry CCN1CCN(C(=O)c2cc(N(CCBr)CCOS(C)(=O)=O)c(S(C)(=O)=O)cc2[N+](=O)[O-])CC1.CS(=O)(=O)O , solubility reported as ≥ 100 mg/mL

* * *

System: HCC1937
experiment.notes: resazurin-based potency assay, normoxia vs anoxia
Type: cell-based, human
test.conditions: Homo sapiens, normoxia (21% O2), 4 h exposure then 96 h, read-out: IC50 Average for Cpd.11Ms NRX (SD)
metric: pIC50
One number for each entry, as −log10 of the molar value.

Entry CCN1CCN(C(=O)c2cc(N(CCBr)CCOS(C)(=O)=O)c(S(C)(=O)=O)cc2[N+](=O)[O-])CC1.CS(=O)(=O)O [Cpd.11 Ms, methanesulfonate] , pIC50 reported as 2.84

* * *

Test system: BxPC-3
experiment.notes: resazurin-based potency assay, normoxia vs anoxia
Format: cell-based, human
test.conditions: Homo sapiens, anoxia (<0.01% O2), 4 h exposure then 96 h, read-out: IC50 Average for Cpd.11Ms ANX (SD)
metric: pIC50
Numbers only, as −log10 of the molar value.

Entry CCN1CCN(C(=O)c2cc(N(CCBr)CCOS(C)(=O)=O)c(S(C)(=O)=O)cc2[N+](=O)[O-])CC1.CS(=O)(=O)O [Cpd.11 Ms, methanesulfonate] , pIC50 reported as 4.17
